- measurement notes: Cytotoxicity against human A549 cells assessed as cell viability at 100 ug/ml after 48 hrs by MTT assay
- Type: cell-based
- measurement setup: read-out: Activity
measured quantity: viability at 48 h, 100 ug/ml
Write the figure, then the unit, nothing else.

[
  {
    "structure smiles string": "Cl.N=C(NC1CCCCC1)c1ccc(OCCSCCOc2ccc(C(=N)NC3CCCCC3)cc2)cc1",
    "viability at 48 h, 100 ug/ml": "63.9%"
  },
  {
    "structure smiles string": "Cl.c1cc(C2=NCCN2)ccc1OCCSCCOc1ccc(C2=NCCN2)cc1",
    "viability at 48 h, 100 ug/ml": "52.6%"
  },
  {
    "structure smiles string": "Cl.N=C(N)c1ccc(SCCOCCSc2ccc(C(=N)N)cc2)cc1",
    "viability at 48 h, 100 ug/ml": "19.8%"
  }
]

Kindly review the next molecule as well.
Prompt: Request the reported viability at 48 h, 100 ug/ml associated with CCCCNC(=N)c1ccc(OCCSCCOc2ccc(C(=N)NCCCC)cc2)cc1.Cl
Response: 62.3%

Data origin: ChEMBL document CHEMBL3286290
